- Test system: A20 lymphoma cells (I-A^d positive), mouse or human plasma
- test details: In vitro coagulation assay on A20 cells with capture bispecific antibody B21-2/10H10
- Format: cell-based
- measurement context: bound via B21-2/10H10 to A20 cells; separate studies per block
Would you kindly list concentration at which plasma coagulated in 50 seconds for each of these molecules?
Put your answer as a value accompanied by its unit after it.

INPUT: Consider the molecule H6-tTF220-cys-C′: tTF219 with Ile-Cys after amino acid 219, (His)6 (protein) HHHHHHAMALVPRGSGTTNTVAAYNLTWKSTNFKTILEWEPKPVNQVYTVQISTKSGDWKSKCFYTTDTECDLTDEIVKDVKQTYLARVFSYPAGNVESTGSAGEPLYENSPEFTPYLETNLGQPTIQSFEQVGTKVNVTVEDERTLVRRNNTFLSLRDVFGKDLIYTLYYWKSSSSGKKTAKTNTNEFLIDVDKGENYCFSVQAVIPSRTVNRKSTDSPVECMGQEKGEFRE and give its measured concentration at which plasma coagulated in 50 seconds.
OUTPUT: 0.5 nM

INPUT: Look up concentration at which plasma coagulated in 50 seconds: IgG-H6-N′-cys-tTF219: one molecule of IgG linked via SMPT to one or two molecules of tTF (conjugate, left off: large carriers) HHHHHHAMALVPRGSCGTTNTVAAYNLTWKSTNFKTILEWEPKPVNQVYTVQISTKSGDWKSKCFYTTDTECDLTDEIVKDVKQTYLARVFSYPAGNVESTGSAGEPLYENSPEFTPYLETNLGQPTIQSFEQVGTKVNVTVEDERTLVRRNNTFLSLRDVFGKDLIYTLYYWKSSSSGKKTAKTNTNEFLIDVDKGENYCFSVQAVIPSRTVNRKSTDSPVECMGQEKGEFRE
OUTPUT: 5 nM

INPUT: I would be grateful if you could share the reported concentration at which plasma coagulated in 50 seconds for H6-tTF221-cys-C′ dimer: chemically conjugated disulfide dimer of H6-tTF221-cys-C′ (protein) HHHHHHAMALVPRGSGTTNTVAAYNLTWKSTNFKTILEWEPKPVNQVYTVQISTKSGDWKSKCFYTTDTECDLTDEIVKDVKQTYLARVFSYPAGNVESTGSAGEPLYENSPEFTPYLETNLGQPTIQSFEQVGTKVNVTVEDERTLVRRNNTFLSLRDVFGKDLIYTLYYWKSSSSGKKTAKTNTNEFLIDVDKGENYCFSVQAVIPSRTVNRKSTDSPVECMGQEKGEFRE .
OUTPUT: 4 nM
